Target: Adenosine receptor A2b (Homo sapiens, UniProt P29275)
Sequence (P29275 whole entry): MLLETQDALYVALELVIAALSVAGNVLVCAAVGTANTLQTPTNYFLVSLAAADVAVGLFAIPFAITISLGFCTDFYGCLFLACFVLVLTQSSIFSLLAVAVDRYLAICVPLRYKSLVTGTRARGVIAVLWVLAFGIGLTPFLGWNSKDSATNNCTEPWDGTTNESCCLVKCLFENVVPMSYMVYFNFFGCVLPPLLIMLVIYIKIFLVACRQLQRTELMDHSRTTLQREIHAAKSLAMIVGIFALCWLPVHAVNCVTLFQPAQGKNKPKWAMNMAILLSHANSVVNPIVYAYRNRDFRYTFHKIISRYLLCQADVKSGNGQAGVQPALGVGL
Assay: Antagonist activity at human adenosine A2B receptor expressed in CHO cells assessed as inhibition of NECA-stimulated cAMP level by scintillation counting analysis
Quick reference for IC50 among some compounds
observedProperty: IC50 (µM)

                             compoundsmiles  observedproperty  valuemeasured
0     Nc1nc(Cc2ccccc2F)nc2cn(-c3ccccc3)nc12              IC50          0.123
1   Nc1nc(CCCc2ccccc2O)nc2cn(-c3ccccc3)nc12              IC50          0.247
2  COc1cccc(CCCc2nc(N)c3nn(-c4ccccc4)cc3n2)c1              IC50          0.334
3                 Nc1ncnc2cn(-c3ccccc3)nc12              IC50           0.63
4    Nc1nc(CCCc2ccccc2)nc2cn(-c3ccccc3)nc12              IC50          0.432
5  Nc1nc(CCCc2cccc(O)c2)nc2cn(-c3ccccc3)nc12              IC50          0.314
6  COc1ccccc1CCCc1nc(N)c2nn(-c3ccccc3)cc2n1              IC50          0.387
